- protocolText: Lipophilicity, log D of the compound
- Type: physicochemical
- testConditions: octanol/water
observationType: logD
Numbers only.

Please look up its logD: CCOC[C@H]1C[C@@](CC(C)C)(C(=O)O)N(C(=O)c2ccc(C(C)(C)C)c(OC)c2)[C@H]1c1nccs1
2.7

Could you now look at the following molecule, please?
Value lookup for logD; key = COC[C@H]1C[C@@](CC(C)C)(C(=O)O)N(C(=O)c2ccc(C(C)(C)C)c(OC)c2)[C@H]1c1nccs1
2.2

---

- protocolText: Bioavailability in Sprague-Dawley rat at 2 mg/kg, po and 1 mg/kg, iv
- Type: ADME, organism-based
- testConditions: in vivo
Label 1 (yes) for high-side bioavailability (at or above 5%) and 0 (no) for low-side bioavailability (below it).

Reference set, count: 5
Decide: bioavailability of COc1cc(C(=O)N2[C@@H](c3nccs3)[C@@H](CO)C[C@@]2(CC(C)C)C(=O)O)ccc1C(C)(C)C (racemic) >= 5%?
1 (yes)

Next molecule up: CC(C)C[C@@]1(C(=O)O)C[C@H](C(N)=O)[C@H](c2nccs2)N1C(=O)c1ccc(C(C)(C)C)cc1
0 (no)

Next entry: CC(C)C[C@@]1(C(=O)O)C[C@H](C(N)=O)[C@H](c2nccs2)N1C(=O)c1ccc(C(C)(C)C)c(Br)c1
0 (no)

Let us now turn to COc1cc(C(=O)N2[C@@H](c3nccs3)[C@H](CO)C[C@@]2(CC(C)C)C(=O)O)ccc1C(C)(C)C (racemic)
1 (yes)

Now try COc1cc(C(=O)N2[C@@H](c3nccs3)[C@@H](C(N)=O)C[C@@]2(CC(C)C)C(=O)O)ccc1C(C)(C)C .
0 (no)

Further cases:
Identify whether the reported bioavailability of the following molecule is 5% or greater: COC[C@@H]1C[C@@](CC(C)C)(C(=O)O)N(C(=O)c2ccc(C(C)(C)C)c(OC)c2)[C@H]1c1nccs1
1 (yes)

And COC[C@H]1C[C@@](CC(C)C)(C(=O)O)N(C(=O)c2ccc(C(C)(C)C)c(OC)c2)[C@H]1c1nccs1 ?
1 (yes)

// query: CCOC[C@H]1C[C@@](CC(C)C)(C(=O)O)N(C(=O)c2ccc(C(C)(C)C)c(OC)c2)[C@H]1c1nccs1
1 (yes)
